- System: T1, Human soluble IL-6R (human, UniProt P08887 20-358)
- T1 construct: Soluble recombinant form; biotinylated in some assays; also called hIL-6R; human IL-6R
- T1 sequence (looked up): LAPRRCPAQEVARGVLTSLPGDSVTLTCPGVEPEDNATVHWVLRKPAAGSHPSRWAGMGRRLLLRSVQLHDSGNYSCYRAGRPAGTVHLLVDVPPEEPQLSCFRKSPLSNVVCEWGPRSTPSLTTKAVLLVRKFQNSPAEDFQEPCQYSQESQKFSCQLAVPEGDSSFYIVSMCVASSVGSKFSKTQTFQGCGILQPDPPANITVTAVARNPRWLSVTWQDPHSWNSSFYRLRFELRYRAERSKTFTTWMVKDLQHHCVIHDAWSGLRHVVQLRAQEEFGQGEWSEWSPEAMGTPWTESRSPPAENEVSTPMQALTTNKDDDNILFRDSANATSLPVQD
- Experiment: Alphascreen, 100 nM Nanobody, 0.4 nM bio-IL-6R; competitor: reference Fab
Residual reference-Fab binding to IL-6R (%) values for the binders below.
Reply with just the number (in %).

Consider the worked cases shown below.
| Binder | Test Result |
| --- | --- |
| IL6R12 (VHH, also called PMP35F4; not shown: C-terminal c-myc and (His)6 tags) VHH: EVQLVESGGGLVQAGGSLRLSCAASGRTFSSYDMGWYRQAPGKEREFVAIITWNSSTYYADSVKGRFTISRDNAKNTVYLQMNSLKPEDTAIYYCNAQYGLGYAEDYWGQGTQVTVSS | 103 |
| IL6R04 (VHH, also called PMP32C9; not shown: C-terminal c-myc and (His)6 tags) VHH: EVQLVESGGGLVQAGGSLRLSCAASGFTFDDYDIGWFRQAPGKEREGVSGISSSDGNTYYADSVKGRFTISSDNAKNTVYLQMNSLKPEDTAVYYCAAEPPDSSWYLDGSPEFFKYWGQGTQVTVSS | 50 |
| IL6R10 (VHH, also called PMP35C10; not shown: C-terminal c-myc and (His)6 tags) VHH: EVQLVESGGGLVQAGGSLRLSCAASGRTFSSYDMGWYRQAPGKEREFVAVIHWSSGSTYYADPVKGRFTISRDNAKNTVYLQMNSLKPEDTAIYYCNAFLPGPEGFHDYWGQGTQVTVSS | 102 |
| IL6R11 (VHH, also called PMP35E11; not shown: C-terminal c-myc and (His)6 tags) VHH: EVQLVESGGGLVQAGGSLRLSCAASGFTFDDYAIGWFRQAPGKEHEGVSCISSSDGSTYYADSVKGRFTISSDNAKNTVYLQMNSLKPEDTAVYYCAAERDVPARSLCGSYYWYDYRGQGTQVTVSS | 40 |
| IL6R09 (VHH, also called PMP34G9; not shown: C-terminal c-myc and (His)6 tags) VHH: EVQLVESGGGLVQAGGSLRLSCAASGRTSSSYDMTWYRQVPGKEREFVAVISWSGGSTYYADSVKGRFTISRDNAKNTVYLQMNSLKPEDTAIYYCNAYTGGGDDYWGQGTQVTVSS | 62 |
| IL6R03 (VHH, also called PMP31A4; not shown: C-terminal c-myc and (His)6 tags) VHH: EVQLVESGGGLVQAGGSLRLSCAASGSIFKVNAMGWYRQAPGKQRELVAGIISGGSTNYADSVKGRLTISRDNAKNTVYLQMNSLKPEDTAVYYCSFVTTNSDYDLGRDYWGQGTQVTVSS | 5 |

Exam item: # input binder: IL6R13 (VHH, also called PMP35H4; not shown: C-terminal c-myc and (His)6 tags) VHH: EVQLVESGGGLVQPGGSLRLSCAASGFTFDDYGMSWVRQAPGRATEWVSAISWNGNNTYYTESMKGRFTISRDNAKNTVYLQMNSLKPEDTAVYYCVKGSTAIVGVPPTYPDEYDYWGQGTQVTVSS ; wanted: its Residual reference-Fab binding to IL-6R (%)
Marked response: 25

Exam item: # input binder: IL6R07 (VHH, also called PMP33A3; not shown: C-terminal c-myc and (His)6 tags) VHH: EVQLVESGGGLVQPGGSLRLSCAASGFTLDYGAIGWFRQAPGKEREGVSCISSSTGSTYYADSVKGRFTISRDNGKNTVYLQMNSLKPEDTAVYYCAADKMWSPCLVAANEEALFEYDYWGQGTQVTVSS ; wanted: its Residual reference-Fab binding to IL-6R (%)
Marked response: 80
